target-desc: T1, RSV postfusion F (postF), subtype B (respiratory syncytial virus, subtype B)
T1 construct: also called F ΔFP; Postfusion subtype B
T1 sequence (P13843 26-109, chain 1 of 2): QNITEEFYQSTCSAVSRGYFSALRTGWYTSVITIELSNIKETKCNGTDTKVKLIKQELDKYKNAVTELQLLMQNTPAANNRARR
T1 sequence (P13843 147-513, chain 2 of 2): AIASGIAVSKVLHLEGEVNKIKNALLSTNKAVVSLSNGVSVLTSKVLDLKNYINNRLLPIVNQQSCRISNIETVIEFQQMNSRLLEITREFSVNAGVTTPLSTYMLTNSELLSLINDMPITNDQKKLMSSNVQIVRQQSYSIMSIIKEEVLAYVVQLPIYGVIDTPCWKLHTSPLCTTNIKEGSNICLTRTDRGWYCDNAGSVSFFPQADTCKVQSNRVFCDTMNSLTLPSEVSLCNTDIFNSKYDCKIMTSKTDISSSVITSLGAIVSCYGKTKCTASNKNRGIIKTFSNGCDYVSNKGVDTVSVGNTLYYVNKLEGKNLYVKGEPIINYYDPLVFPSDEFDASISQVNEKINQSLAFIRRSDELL
assay-details: BLI, IgG
parameter-measured: Kd (nM)
Answers are plain numbers, in nM.

The examples below pair each entry with its known result.
INSERT INTO results (binder, parameter_measured, observed_measurement) VALUES
  ('ADI-14589 (antibody, V domains shown) VH: QITLKESGPVLVKPSETLTLTCTVSGFSLSNAKMGVSWIRQPPGKALEWLAHIFSNDEKSYNTSLKNRLTISKDTSKSQVVLTMTNMDTVDTATYYCARINYYDSSGYYLANFDYWGQGTLVTVSS VL: NIRLTQSPSSLSASVGDRVTITCRASQRIASYLNWYQQKPGHAPKLLIHAASSLQSGVPSRFSGSGSGTDFTLTINSLLPEDFATYYCQQSYSSPPHSSPPLTFGGGTKVEIK', 'Kd', 15.4),
  ('ADI-21047 (antibody, V domains shown) VH: QVQLQQWGAGLLKPSETLSLTCAVYGGSFSGKYWSWIRQPPGKGLEWIGEFNHDGTTYYNPSLKSRVTISADTPKNQFSLTLHSVTAADTAVYYCARLTILSDWGQGTLVTVSS VL: DIRMTQSPSSLSASVGDRVTITCQASQDISNYLHWYQQKPGKAPKLLIYDASNLETGVPSRFSGSGSGTDFTFTIHSLQPEDLATYYCQQYYDLPRTFGQGTKLEIK', 'Kd', 0.262),
  ('ADI-20993 (antibody, V domains shown) VH: EVQLVESGGGVVQPGRSLRLTCAASGFPFSSYAMHWVRQAPGKGLEWVAVTWYDGPNRDYADSVKGRFTVSRDNSKNTLYLQMTSLRADDTAVYYCARRGSWGSFDYWGQGTLVTVSS VL: DIVMTQSPLSLSATPGEPASISCRPSQSLLHSNGYNYLEWYLQKPGQSPQLLIYLGSNRASGVPDRFSGGGSGTDFTLRISRVEADDVGVYYCMQASQTPYTFGQGTKVEIK', 'Kd', 0.273);

// each binder listed below needs its Kd
1. ADI-14598 (antibody, V domains shown) VH: QVQLVQSGAEVKKPGSSVKVSCKASGGTFSSYAIYWVRQAPGQGLECMGGIIPIFGSANYAQKFQGRVTITADESTSTAYMELSSLRSEDTAVYYCATDSLKTTYYYGSSGYFRDHVWGQGTTVTVSS VL: ETTLTQSPSSLSASVGDRVTITCRASQGISNYLAWYQQKPGKVPKLLIFAASTLQSGVPSRFSGSGSGTDFTLTISSLQPEDVATYYCQNFNSVLSFTFGPGTKVDIK
2. ADI-14607 (antibody, V domains shown) VH: EVQLLESGGGVVQSGRSLRLSCAASGFTFNNYAMHWVRQAPGKGLEWVAVISFDGGNKFYGDSVQGRFTISRDNSKNTLYLQTNSLRPEDTAVYYCARDRWEIQIGLDIWGQGTTVTVSS VL: SYVLTQPPSVSVSPGQTARITCSGDALARQNAYWYQQKPGQAPVLVMYRDTGRPSGIPERFSGSSSGTTVTLTISEVQAEDEADYYCQSADSSGAYVFGTGTKVTVL
3. ADI-20968 (antibody, V domains shown) VH: QVQLQQWGAGLLKPSETLSLTCAMYGGSFSDDYWSWIRQPPGKGLEWIGEVNHGGSTNYNTSLKSRVTISADTSKKQFSLKLRSVTAADTAVYFCARGWRYCNATTCYSKAFDIWGQGTMVTVSS VL: DIQMTQSPSSLSASVGDRVTITCQASQDIDIYLIWYQQKPGRAPKLLIYDASNLKTGVPSRFSGSGSGTEFTFTINNLQPEDFATYYCQQFHDLPLTFGGGTKLEIK
4. ADI-21008 (antibody, V domains shown, also called Ab 259) VH: QVQLQESGAGLLKPSETLSLTCTVYGGTFSGYHWNWIRQPPGKGLEWIGEINHRENTDYNASLESRVTISVDTSKRQFSLKMNSVTVADTAVYYCARGIQVLTNLGTEVRVHQFLDLWGRGTLVTVSS VL: DIVLTQTPATLSLSPGERATLSCRASQSVSTYLAWYQQKPGQAPRLLIYDASNRAAGIPARFSGSGSGTDFTLTISSLEPEDFAVYYCQQRTNWLPLTFGGGTKVDIK
5. ADI-21007 (antibody, V domains shown) VH: QVQLVQSGADVKKPGASVKVSCKSSGYTFSNHSMHWVRQAPGQGLEWMGRIHPSSGTTTYAQKFQGRVTMTRDTSTSTVYMEVSSLRSEDTAVYYCARSPFFDFDFWGQGTMVTVSS VL: SYVLTQPHSVSESPGKTVTISCTRSSGSIASNYVQWYQQRPGSAPTSVIYEDNQRPSGVPDRFSGSIDSTSNSASLTISGLKTEDEADYYCQSYYSSGWVFGGGTKLTVL
6. ADI-14393 (antibody, V domains shown, also called Ab 60) VH: QVQLVESGGGLVKPGGSLRLSCAASGFSFTGFYMNWVRQAPGKGLEWVSSISSSSTYKNYADSLQGRFTISRDNARSSLYLQMNSLRAEDTAVYYCARTRTEYTYGYYHDFWGQGTLVTVSS VL: QPVLTQPPSVSGAPGQRVTISCTGSSSNIGAGYDVHWYQQVPGTAPKLLIYNNNNRPSGVPDRFSGSKSGTSASLAITGLQAEDEADYYCQSYDSRLSGVFGGGTKLTVL
7. ADI-14590 (antibody, V domains shown) VH: EVQLVESGAEVKKPGESLKISCKGSGYSFATYWIGWVRQMPGKGLEWMGIIYPGDSDTRYSPSFQGQVTISADKSISTAYLQWSSLKASDTAIYYCARAKLPVAGLYYFDYWGQGTLVTVSS VL: DIQLTQSPSSLSASVGDRVTITCRASQGISSTLAWYQQKPGKAPKLLIYDASSLESGVPSRFSGSGSGTDFTLTISSLHPEDFATYYCQQFNTYPTFGGGTKVEIK

4.81
0.227
0.15
1.45
0.171
11.7
0.967

The reported measurements were obtained from patent US20260258115A1.
